# System: TDF;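 note: TDF is a line of transformed human dermal fibroblasts of mesenchymal origin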
# assayInfo: H1.0 immunofluorescence intensity relative to DMSO (% of DMSO); higher = stronger H1.0 induction, active = 120 or more
# conditions: concentration: 10 µM; 24 h
readoutLabel: H1.0 immunofluorescence intensity
No unit in the answer, please; the number alone is enough.

The examples below pair each entry with its known result.
CC(=O)OC1(C(C)=O)CCC2C3C=C(Cl)C4=CC(=O)C5CC5C4(C)C3CCC21C (stereo not given) [Cyproterone acetate]: 92.2
O=C1c2c(O)cc(O)cc2OC(c2ccc(O)c(O)c2)C1O (racemic): 87.5
c1ccc(-c2n[nH]c3c2oc2ccccc23)cc1: 94.2
Cl.NC1(C(=O)O)CCCCC1 [1-Amino-1-cyclohexanecarboxylic acid hydrochloride]: 95.3
CCN(CC)CCNC(=O)c1cc(Cl)c(N)cc1OC.Cl [Metoclopramide hydrochloride]: 94.3

INPUT: State recorded H1.0 immunofluorescence intensity with TDF, entry COc1cc(CC(=O)O)ccc1O [4-Hydroxy-3-methoxyphenylacetic acid] , no comment.
OUTPUT: 102
